- Tested on: C. elegans (strain N2)
- assay comment: C. elegans contact assay (NGM-agar, 24-well)
- Type: in vivo
- reported conditions: in vivo; read-out: EC50
measurement type: EC50 (µM)
Report as a plain number; the unit µM is understood.

Solved cases below.
| record smiles | assay target | EC50 (µM) |
| --- | --- | --- |
| O=S(=O)(F)CCNc1ccc(Cl)cc1 | C. elegans (strain N2) | 82 |
| COc1ccc(NCCS(=O)(=O)F)cc1 | C. elegans (strain N2) | 500 |
| O=S(=O)(F)CCn1cnc2ccccc21 | C. elegans (strain N2) | 1400 |

Data request: So what does the record say about EC50 for `O=C1CCC(=O)N1CCS(=O)(=O)F` ?
Data returned: 1300
